Origin of the recorded values: paper PMC11578313

Assay: In vivo pharmacokinetic study in male ICR mice (compound alone)
Conditions: male, ICR, mouse, plasma, oral, 10 mg/kg, PO 10 mg/kg (10MPK), 4 hr, mouse plasma, individual mice 4-6; read-out: Plasma concentration (Calculated Concentration)
reported-metric: concentration at 4 h (ng/mL)
Quick reminder: number only, in ng/mL, skip the unit.

# concentration at 4 h lookup, item Cc1cncc(C(=O)N2C[C@H]3CC[C@@H](C2)N3[C@H](c2cccc(F)c2)c2cn(CCc3ccsc3)nn2)c1 [Compound C5N17B]
5.85

----------
Assay: In vivo pharmacokinetic study in male ICR mice (compound alone)
Conditions: male, ICR, mouse, plasma, po, 10 mg/kg, p.o. 10 mg kg^−1, male ICR mice, n = 3; read-out: MRT0‐∞, p.o.
reported-metric: MRT (h)
Quick reminder: number only, in h, skip the unit.

# MRT lookup, item Cc1cncc(C(=O)N2C[C@H]3CC[C@@H](C2)N3[C@H](c2cccc(F)c2)c2cn(CCc3ccsc3)nn2)c1 [Compound C5N17B]
5

----------
Experiment: in vivo
Details: male, ICR, mouse, po, 10 mg/kg, Plasma concentration, Mean, C5N17B+Ritonavir, PO 10 mg/kg, 0.50 h, mean of mice 1#-3#
reported-metric: concentration at 0.5 h
State the result as a value with its unit after it.

# concentration at 0.5 h lookup, item Cc1cncc(C(=O)N2C[C@H]3CC[C@@H](C2)N3[C@H](c2cccc(F)c2)c2cn(CCc3ccsc3)nn2)c1 [Compound C5N17B]
1740 ng/mL

----------
Parameter pEC50: see the listing below.
Test system: SARS‐CoV‐2 (hCoV‐19/Korea/KCDC06/2020, wild type)
Test: microbe, parasite or virus in culture
Format: cell-based
Conditions: Severe acute respiratory syndrome coronavirus 2, Calu-3, Calu‐3 cells, with CP‐100356; read-out: EC50 ± SD, Calu‐3 cells, with P‐gp inhibitor
Scale: pEC50 equals -log10([C]), with [C] in mol/L.

Consider the reported pEC50 for these compounds:
compound: Cc1cncc(C(=O)N2C[C@H]3CC[C@@H](C2)N3C(c2cccc(F)c2)c2cn(Cc3cccc(F)c3)nn2)c1 (stereo partly drawn) [Compound C5N64]
pEC50: 6.32
--
compound: Cc1cncc(C(=O)N2C[C@H]3CC[C@@H](C2)N3C(c2cccc(F)c2)c2cn(CCN3C(=O)c4ccccc4C3=O)nn2)c1 (stereo partly drawn) [Compound C5N21]
pEC50: 6.59
--
compound: Cc1cncc(C(=O)N2C[C@H]3CC[C@@H](C2)N3C(c2cccc(F)c2)c2cn(Cc3ccc(S(C)(=O)=O)cc3)nn2)c1 (stereo partly drawn) [Compound C5N50]
pEC50: 5.54
--
compound: Cc1cncc(C(=O)N2C[C@H]3CC[C@@H](C2)N3C(c2cccc(F)c2)c2cn(CCc3ccsc3)nn2)c1 (stereo partly drawn) [Compound C5N17]
pEC50: 7.55

For the next question, use this compound.
# pEC50 lookup, item Cc1cncc(C(=O)N2C[C@H]3CC[C@@H](C2)N3C(c2cccc(F)c2)c2cn(C[S+]([O-])c3ccccc3)nn2)c1 (stereo partly drawn) [Compound C5N41]
7.01

----------
Tested on: SARS‐CoV‐2
Assay: microbe, parasite or virus in culture
Format: cell-based
Conditions: Severe acute respiratory syndrome coronavirus 2; Vero cells, with CP‐100356; read-out: EC50 ± SD, Vero cells, with P‐gp inhibitor
reported-metric: pEC50
Scale: pEC50 equals -log10([C]), with [C] in mol/L.

Consider the reported pEC50 for these molecules:
molecule: Cc1cncc(C(=O)N2C[C@H]3CC[C@@H](C2)N3C(c2cccc(F)c2)c2cn(Cc3ccc(S(C)(=O)=O)cc3)nn2)c1 (stereo partly drawn) [Compound C5N50]
pEC50: 5.18
--
molecule: COC(=O)CCCn1cc(C(c2cccc(F)c2)N2[C@@H]3CC[C@H]2CN(C(=O)c2cncc(C)c2)C3)nn1 (stereo partly drawn) [Compound C5N39]
pEC50: 5.80

# pEC50 lookup, item Cc1cncc(C(=O)N2C[C@H]3CC[C@@H](C2)N3C(c2cccc(F)c2)c2cccc(F)c2)c1 [AA‐625, reference compound]
5.69
